Values compiled from patent US4960883A.

System: Rabbit PRP, ADP-induced platelet aggregation
Test: Inhibitory effect on ADP-induced platelet aggregation
Assay type: cell-based
Details: concentration at which the inhibition rate (%) in parentheses was found, ADP (2 μm)
Description: (B) Inhibitory effect on ADP-induced platelet aggregation Rabbit PRP (250 μl) was preincubated with drug samples ([…]) of aqueous solution or 1 µl of DMSO solution) at 37° C. for 1 minute, and ADP (2 μm)-induced platelet aggregation was measured by aggregometer (NKK HEMA TRACERl Model PAT-4M). Inhibitory effects of the drugs were estimated from the standard curve of maximal aggregation.
We begin with a simple list: items and their reported Platelet aggregation inhibitory concentration.
Measurement Name: Platelet aggregation inhibitory concentration

• COc1ccc(S(=O)(=O)N2CCN(CC(COCC(C)C)N(C)Cc3ccccc3)CC2)cc1OC (stereo not drawn) = 10^-5 mole/liter
• CC(C)COCC(CN1CCN(S(C)(=O)=O)CC1)N(C)Cc1ccccc1 (stereo not drawn) = 10^-4 mole/liter
• CC(C)COCC(CN1CCN(S(=O)(=O)c2cccc3c(Cl)cccc23)CC1)N(C)Cc1ccccc1 (stereo not drawn) = 10^-5 mole/liter
• CC(C)COCC(CN1CCN(C(=O)CCO[N+](=O)[O-])CC1)N(C)Cc1ccccc1 (stereo not drawn) = 10^-4 mole/liter
• CC(C)COCC(CN1CCCN(S(=O)(=O)c2ccccc2)CC1)N(C)Cc1ccccc1 (stereo not drawn) = 10^-4 mole/liter
• CC(C)COCC(CN1CCN(S(=O)(=O)c2ccccc2)CC1)N(C)Cc1ccccc1 (stereo not drawn) = 10^-4 mole/liter
